A collection of sequences and their measured Km
Target: FIH (Homo sapiens, UniProt Q9NWT6)
Construct: Full-length recombinant FIH, two- and three-consensus ankyrin repeats (2CA and 3CA) were produced as described; His6 (cleaved yes); made in house; host or cells: Escherichia coli BL21(DE3)
Sequence (Q9NWT6 whole entry): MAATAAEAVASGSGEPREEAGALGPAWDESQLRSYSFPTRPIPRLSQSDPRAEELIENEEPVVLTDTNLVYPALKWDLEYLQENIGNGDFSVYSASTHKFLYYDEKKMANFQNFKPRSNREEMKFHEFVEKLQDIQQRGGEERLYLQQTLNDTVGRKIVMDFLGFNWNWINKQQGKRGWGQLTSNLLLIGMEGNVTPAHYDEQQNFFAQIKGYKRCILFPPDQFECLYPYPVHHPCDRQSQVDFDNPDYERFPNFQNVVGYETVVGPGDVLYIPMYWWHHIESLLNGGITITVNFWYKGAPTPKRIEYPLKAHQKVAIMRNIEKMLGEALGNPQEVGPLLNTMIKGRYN
Assay: O2 dependence of FIH-catalyzed hydroxylation (hypoxia workstation)
Type: biochemical
Details: FIH with the named substrate; 5 μM FIH, 500 μM peptide, 50 μM Fe(II), 1 mM 2OG, 1 mM L-ascorbate, 50 mM HEPES pH 7.5, 37 °C, hypoxia workstation at different pO2; triplicate assays; read-out: Km^app(O2)
Write the value in µM as a bare number.

Consider the following illustrative entries.
ESYLLPELTRYDCEVNVPVLGSSTLLQGGDLLRAL [HIF-2α CAD35-mer]	110
DESGLPQLTSYDCEVNAPIQGSRNLLQGEELLRAL [HIF-1α CAD35-mer]	110
GSHMGSDLGKKLLEAARAGQDDEVRILMANGADVAAKDKNGSTPLHLAARNGHLEVVKLLLEAGADVNAQDKFGKTAFDISIDNGNEDLAEILQ [3CA, recombinant three-consensus ankyrin repeat protein produced in Escherichia coli]	120
HLEVVKLLLEAGADVNAQDK [1CA20-mer]	40
AAGYNNLEVAEYLLEHGADVNAQDKGGLIPLHNAA [tnkrs-1_35-mer, 35-mer fragment of tankyrase-1, ARD substrate of FIH]	50

Turning now to a further sequence:
The value of Km measured for the sequence SDKNGSTPLHLAARNGHLEVVKLLLEHGADVNAQDKWGKTAFDISIDNGNEDLAEILQ [2CA, recombinant two-consensus ankyrin repeat protein produced in Escherichia coli] turned out to be 56

###

Target: FIH (Homo sapiens, UniProt Q9NWT6)
Construct: Full-length recombinant FIH, two- and three-consensus ankyrin repeats (2CA and 3CA) were produced as described; His6 (cleaved yes); made in house; host or cells: Escherichia coli BL21(DE3)
Assay: Steady-state kinetics of FIH-catalyzed peptide/protein hydroxylation (MALDI-TOF-MS or LC-MS)
Type: biochemical
Details: FIH; 50 μM Fe(II), 1 mM L-ascorbate, 50 mM HEPES pH 7.5, 37 °C; MALDI-TOF-MS or LC-MS
A collection of sequences and their measured kcat^app
Write the value in s⁻¹ as a bare number.

Consider the following illustrative entries.
NLEVAEYLLEHGADVNAQDK [tnkrs-1_20-mer, 20-mer fragment of tankyrase-1, ARD substrate of FIH]	0.8
HLEVVKLLLEAGADVNAQDK [1CA20-mer]	1.6
ESYLLPELTRYDCEVNVPVLGSSTLLQGGDLLRAL [HIF-2α CAD35-mer]	0.049

Turning now to a further sequence:
The value of kcat^app measured for the sequence GSHMGSDLGKKLLEAARAGQDDEVRILMANGADVAAKDKNGSTPLHLAARNGHLEVVKLLLEAGADVNAQDKFGKTAFDISIDNGNEDLAEILQ [3CA, recombinant three-consensus ankyrin repeat protein produced in Escherichia coli] turned out to be 0.6

###

Biological target: FIH (Homo sapiens, UniProt Q9NWT6)
Construct: Full-length recombinant FIH, two- and three-consensus ankyrin repeats (2CA and 3CA) were produced as described; His6 (cleaved yes); made in house; host or cells: Escherichia coli BL21(DE3)
Assay: Steady-state kinetics of FIH-catalyzed peptide/protein hydroxylation (MALDI-TOF-MS or LC-MS)
Type: biochemical
Details: FIH with the named substrate; 0.1–5 μM FIH, 2OG varied, 50 μM Fe(II), 1 mM L-ascorbate, 50 mM HEPES pH 7.5, 37 °C; MALDI-TOF-MS (LC-MS for 2CA, 3CA); triplicate assays; read-out: Km^app(2OG)
A collection of sequences and their measured Km

Consider the following illustrative entries.
DESGLPQLTSYDCEVNAPIQGSRNLLQGEELLRAL [HIF-1α CAD35-mer]	110 µM
NLEVAEYLLEHGADVNAQDK [tnkrs-1_20-mer, 20-mer fragment of tankyrase-1, ARD substrate of FIH]	370 µM
GSHMGSDLGKKLLEAARAGQDDEVRILMANGADVAAKDKNGSTPLHLAARNGHLEVVKLLLEAGADVNAQDKFGKTAFDISIDNGNEDLAEILQ [3CA, recombinant three-consensus ankyrin repeat protein produced in Escherichia coli]	200 µM

The value of Km measured for the sequence AAGYNNLEVAEYLLEHGADVNAQDKGGLIPLHNAA [tnkrs-1_35-mer, 35-mer fragment of tankyrase-1, ARD substrate of FIH] turned out to be 61 µM

The value of Km measured for the sequence HLEVVKLLLEAGADVNAQDK [1CA20-mer] turned out to be 290 µM

The value of Km measured for the sequence ESYLLPELTRYDCEVNVPVLGSSTLLQGGDLLRAL [HIF-2α CAD35-mer] turned out to be 19 µM

The value of Km measured for the sequence SDKNGSTPLHLAARNGHLEVVKLLLEHGADVNAQDKWGKTAFDISIDNGNEDLAEILQ [2CA, recombinant two-consensus ankyrin repeat protein produced in Escherichia coli] turned out to be 110 µM
